- System: 786-0 renal
- test-protocol: NCI tumour cell line growth inhibition, 48 h
measurement-type: TGI

Consider the worked cases shown below.
O=C(NC(=O)c1c(Cl)nc2sccn12)Nc1ccc(Cl)cc1 = > 90.1 µM
CC(C)(C)C1=C(Br)C(O)(C(C)(C)C)OP1(=O)c1ccccc1 (stereo not drawn) = > 100 µM
O=C1NC(Cc2ccc(O)cc2)C(=O)NC1Cc1ccc(O)cc1 (stereo not drawn) = > 100 µM
Cc1c(C#N)cccc1[C@@H](C)Nc1nnc(C)c2cnc(N3CCOCC3)cc12 = > 100 µM
Cc1ccccc1NC(=O)CC(=O)NNC(Sc1ccccc1)c1cc(N=Nc2ccc(Br)cc2)ccc1O (stereo not drawn) = > 10 µM
COc1cc(/C=C/c2ccc(O)c(OC)c2)cc(OC)c1 = > 100 µM

The compound identified as COC(NC(=O)Nc1ccccc1C)(C(F)(F)F)C(F)(F)F registered its TGI at > 100 µM

C=C1C(O)C2CC(C)(CO)C(=O)C2=C(CC(C)C)C12CC2 (stereo not drawn) has a reported TGI of > 100 µM

Kindly note the recorded TGI for CC1OC(=O)C(O)=C1O (stereo not drawn) , which is > 100 µM

Reported TGI for CCOC(=O)c1cc(-c2ccc(-c3cc(C(=O)OCC)c(C#N)c(N)c3C#N)cc2)c(C#N)c(N)c1C#N was > 100 µM

Sure, the documented TGI for NCCSCCC(=O)O is > 100 µM

Record CCCOC(=O)c1c(C)n(C)c2scc[n+]12 , field TGI: > 100 µM

The reported value for COc1ccc(-c2ccc(/C=N/n3c(COc4ccccc4Cl)nn(CN4CCOCC4)c3=S)o2)c([N+](=O)[O-])c1 in terms of TGI is > 100 µM

Cited source for all entries: PubChem BioAssay (NCI)
